System: NIH-3T3 mammalian fibroblasts
Protocol summary: Counterscreen mammalian cell toxicity assay (Alamar Blue)
Format: cell-based, murine
Condition description: Mus musculus, NIH3T3, 48 h, read-out: Growth Inhibition Activity, IC50 (μM), 3T3 Fibroblasts (n = 1)
Experimental: Quiescent murine fibroblasts were subjected to incubation with compounds of interest for 48 hours. Subsequent cell viability was determined via measuring Alamar Blue fluorescence. […]
Metric: IC50 (µM)
Number only, in µM; omit the unit.

Challenge: Requested field: IC50. Item: CCOC(=O)N1C(=O)C2(CCCCC2)N(c2ccc(Cl)cc2)C1=S [compound 56604865]
Response given: 22.3

====

Protocol summary: physchem
Condition description: pH 7.4
Metric: PBS Solubility (µM)

(A) CCOC(=O)N1C(=O)C2(CCCC2)N(c2ccc(C)cc2)C1=S [compound 56604843]
(B) CCCC(=O)N1C(=O)C2(CCCCC2)N(c2ccc(C)cc2)C1=S [compound 56604869]
Challenge: Compare A and B by numeric PBS Solubility and name the larger one. Answer by quoting the chosen item's label.
Response given: A

(A) Cc1ccc(N2C(=S)N(C)C(=O)C23CCCCC3)cc1 [compound 56604835]
(B) CCOC(=O)N1C(=O)C2(CCCCC2)NC1=S [compound 56604830]
Challenge: Could you check which of A and B has a smaller value for PBS Solubility? Answer by quoting the chosen item's label.
Response given: A
(A: 6.6 µM, B: 61 µM)

(a) Cc1ccc(N2C(=S)N(S(C)(=O)=O)C(=O)C23CCCCC3)cc1 [compound 56604886]
(b) Cc1ccc(N2C(=S)NC(=O)C23CCCCC3)cc1 [compound 56604892]
Challenge: Could you check which of a and b has a smaller value for PBS Solubility? Answer by quoting the chosen item's label.
Response given: b
(b: 7.8 µM, a: 29 µM)

(I) CCOC(=O)N1C(=O)C2(CCC2)N(c2ccc(C)cc2)C1=S [compound 56604894]
(II) CCOC(=O)N1C(=O)C2(CCOCC2)N(c2ccc(C)cc2)C1=S [compound 56604818]
Challenge: Compare I and II by numeric PBS Solubility and name the larger one. Answer by quoting the chosen item's label.
Response given: II
(II: 28.5 µM, I: 9.9 µM)

====

Protocol summary: physchem
Condition description: pH 7.4, aqueous buffer, kinetic from dmso stock
Metric: solubility at 24 h

Challenge: Requested field: solubility at 24 h. Item: C/C=C/C1[C@H]2C[C@@H](C)CC[C@@H]2C(C)=C[C@H]1C(=O)c1c(O)c(-c2ccc(O)cc2)c[nH]c1=O (stereo partly shown) [ilicicolin H, reference compound]
Response given: < 1 µM

====

Protocol summary: Solubility in PBS pH 7.4 with 1% DMSO
Condition description: Table 4; PBS pH 7.4 with 1% DMSO, 24 hours, room temperature
Metric: PBS Solubility (µM)
Number only, in µM; omit the unit.

{"Smiles repr": "CCOC(=O)N1C(=O)C2(CCCCC2)N(c2ccccc2C)C1=S", "Unit text": "µM", "PBS Solubility": 18}

Challenge: Requested field: PBS Solubility. Item: CCOC(=O)N1C(=O)C2(CCCCC2)N(Cc2ccccc2)C1=S
Response given: 7.2

====

Tested on: Saccharomyces cerevisiae W303
Protocol summary: Secondary S. cerevisiae inhibition in glycerol media (OD600)
Assay type: cell-based
Condition description: Saccharomyces cerevisiae, W303; Table 8; n = 3; glycerol media, 48 hours; tested up to 3 μM; read-out: Growth Inhibition Activity, IC50 (μM), S. cerevisiae (n = 3) On glycerol
Source text: Cell Lines. • Candida albicans CaCi-2; a drug-resistant clinical isolate was provided by the Whitehead Institute (Redding et al., Clin. Infect. Dis. 1994, 18(2):240-2). […] Saccharomyces, while not a major human pathogen, is a useful lab model with well-developed genetic tools available. […] By comparing the concentration-dependent inhibition of yeast growth in glycerol relative to glucose media, a quantitative assessment of a compound's ability to disrupt respiration can be determined. […]
Metric: IC50 (µM)

{"Molecule": "CCOC(=O)N1C(=O)C2(CCCCC2)N(c2ccc(F)cc2)C1=S [compound 56604860]", "Experimental target": "Saccharomyces cerevisiae W303", "IC50 / µM": 0.004}

(P) CCOC(=O)N1C(=O)C2(CCCCC2)N(c2cccc(C)c2)C1=S [compound 56604823]
(Q) CCOC(=O)N1C(=O)C2(CCCCC2)N(c2ccc(C#N)cc2)C1=S [compound 56604847]
Challenge: Could you check which of P and Q has a smaller value for IC50? Answer by quoting the chosen item's label.
Response given: Q
